system: HepaRG cells; assay: HepaRG-based assay: 3H-taurocholic acid uptake in differentiated HepaRG cells; type: cell-based; conditions: Homo sapiens, HepaRG, 0.3 μM 3H-taurocholic acid and 7.5 μM cold taurocholic acid, 30 minutes
Entries and their log10(IC50)
Record value = log10 of IC50 given in nM.

CCCCC1(CC)CN(c2ccccc2)c2cc(SC)c(O/C=C(\F)C(=O)O)cc2S(=O)(=O)C1 (racemic) [Example 41] | 2.53
CCCCC1(CC)CN(c2ccccc2)c2cc(Cl)c(O/C=C(\F)C(=O)O)cc2S(=O)(=O)C1 (racemic) [Example 46] | 2.77
CCC1(CC)CN(c2ccc(NC(=O)C(C)(C)C)cc2)c2cc(SC)c(O/C=C(\F)C(=O)O)cc2S(=O)(=O)C1 | 2.28
CCCCC1(CC)CN(c2ccc(NC(=O)OC(C)(C)C)cc2)c2cc(Br)c(O/C=C/C(=O)O)cc2S(=O)(=O)C1 (stereo not drawn) | 3.08
CCCCC1(CCCC)CN(c2ccc(NC(=O)OC)cc2)c2cc(SC)c(O/C=C/C(=O)O)cc2S(=O)(=O)C1 | 3.36
CCCCC1(CCCC)CN(c2ccc(NC(=O)CCC)cc2)c2cc(SC)c(O/C=C/C(=O)O)cc2S(=O)(=O)C1 | 3.18

Find log10(IC50) (HepaRG cells) for the entry CCCCC1(CC)CN(c2ccccc2)c2cc(Br)c(O/C=C/C(=O)O)cc2S(=O)(=O)C1 (single isomer, unassigned) 2.91

Find log10(IC50) (HepaRG cells) for the entry CCCCC1(CCCC)CN(c2ccc(NC(=O)C(C)C)cc2)c2cc(SC)c(O/C=C/C(=O)O)cc2S(=O)(=O)C1 2.84

Find log10(IC50) (HepaRG cells) for the entry CCCC[C@]1(CC)CN(c2ccccc2)c2cc(SC)c(O/C=C(\F)C(=O)O)cc2S(=O)(=O)N1 (single isomer, unassigned) 2.72

Find log10(IC50) (HepaRG cells) for the entry CCCCC1(CCCC)CN(c2ccccc2)c2cc(Cl)c(O/C=C(\F)C(=O)O)cc2S(=O)(=O)C1 2.90

Find log10(IC50) (HepaRG cells) for the entry CCCCC1(CCCC)CN(c2ccccc2)c2cc(SC)c(O/C=C(\F)C(=O)O)cc2S(=O)(=O)C1 3.04
